# TARGET_DESC: C-terminal recombinant ADAMTS-10 polypeptide (human)
# PROTOCOL_SUMMARY: SPR; C-terminal end of ADAMTS-10 coupled to a chip; soluble C-terminal ADAMTSL-3 at 80-0 nM; 25°C, HBS-EP buffer
MEASURED_METRIC: pKd
Reminder that pKd is minus the log10 of a molar concentration.

Tell me measured pKd for C-terminal ADAMTSL-3 polypeptide (domain or fragment) please.
8.70
